- MEASUREMENT NOTES: Stability of the compounds in rat plasma (LC-MS validation)
- Type: in vitro ADME
- EXPERIMENTAL CONTEXT: rat plasma, long-term stability (-80℃,15 days), middle spiked level (MQC, 400-1600 ng/mL)
Assignment: determine reported Stability, RE for the given compounds.
One number for each entry, in %.

Check out these entries, answers already filled in.
| COMPOUND | DATA VALUE |
| --- | --- |
| O=C(/C=C/c1ccc(O)c(O)c1)OC1[C@H](O)CC(O)(C(=O)O)C[C@H]1O (stereo partly shown) | 14.43 |
| C=C[C@@H]1C2=CCOC(=O)C2=CO[C@H]1O[C@@H]1O[C@H](CO)[C@@H](O)[C@H](O)[C@H]1O [GPS, gentiopicroside] | 4.29 |
| COc1cc(/C=C/CO)cc(OC)c1O[C@@H]1O[C@H](CO)[C@@H](O)[C@H](O)[C@H]1O [EB, eleutheroside B] | -4.54 |

Kindly review the next compound as well.
# Stability, RE lookup, item `O=C(O)c1ccc(O)c(O)c1`
-3.16

----------
Assignment: determine reported Stability, RE for the given compounds.
- MEASUREMENT NOTES: Stability of the compounds in rat plasma (LC-MS validation)
- Format: in vitro ADME
- EXPERIMENTAL CONTEXT: rat plasma, freeze-thaw stability (three cycles), middle spiked level (MQC, 400-1600 ng/mL)
Answers are plain numbers, in %.

Check out these entries, answers already filled in.
| COMPOUND | REPORTED PROPERTY | READING UNIT | DATA VALUE |
| --- | --- | --- | --- |
| O=C(O)c1ccc(O)c(O)c1 [PCA, protocatechuic acid] | Stability, RE | % | 0.85 |
| C=C[C@@H]1C2=CCOC(=O)C2=CO[C@H]1O[C@@H]1O[C@H](CO)[C@@H](O)[C@H](O)[C@H]1O [GPS, gentiopicroside] | Stability, RE | % | 1.22 |
| COc1cc(/C=C/CO)cc(OC)c1O[C@@H]1O[C@H](CO)[C@@H](O)[C@H](O)[C@H]1O [EB, eleutheroside B] | Stability, RE | % | -0.75 |

# Stability, RE lookup, item O=C(/C=C/c1ccc(O)c(O)c1)OC1[C@H](O)CC(O)(C(=O)O)C[C@H]1O (stereo partly shown) [4-CQA]
-0.64

----------
Assignment: determine reported Stability, RE for the given compounds.
- MEASUREMENT NOTES: Stability of the compounds in rat plasma (LC-MS validation)
- Format: in vitro ADME
- EXPERIMENTAL CONTEXT: rat plasma, freeze-thaw stability (three cycles), high spiked level (HQC, 8000-16000 ng/mL)
Answers are plain numbers, in %.

| COMPOUND | Stability, RE, % |
| --- | --- |
| COc1cc(/C=C/CO)cc(OC)c1O[C@@H]1O[C@H](CO)[C@@H](O)[C@H](O)[C@H]1O [EB, eleutheroside B] | -4.14 |
| O=C(/C=C/c1ccc(O)c(O)c1)OC1[C@H](O)CC(O)(C(=O)O)C[C@H]1O (stereo partly shown) | -3.17 |
| O=C(O)c1ccc(O)c(O)c1 | -0.14 |

# Stability, RE lookup, item C=C[C@@H]1C2=CCOC(=O)C2=CO[C@H]1O[C@@H]1O[C@H](CO)[C@@H](O)[C@H](O)[C@H]1O [GPS, gentiopicroside]
-2.10

Data credit: paper PMC7457137
